biological target: G12D-mutant human KRAS (amino acid residues 1-188) (Homo sapiens, UniProt P01116, G12D); construct: G12D or G12C-mutant human KRAS (amino acid residues 1-188) with FLAG tag; made in house; host or cells: E. coli; assay: KRAS Binding Disruption Assay (AlphaScreen; biotinylated KRpep-2d analogue or RAF1-RBD), G12D; details: KRAS G12D; geometric mean; read-out: KRAS GMean IC50 (uM) MUTATION: G12D
readout: IC50

query-smiles: CN1CCC[C@H]1COc1nc(N2[C@@H]3CC[C@H]2CNC3)c2ccc(-c3ccc4ccccc4c3)cc2n1
tested-on: G12D-mutant human KRAS (amino acid residues 1-188) (Homo sapiens, UniProt P01116, G12D)
IC50: 10 to 100 µM

# get_value(readout='IC50', item= CN1CCC[C@H]1COc1nc(N2[C@@H]3CC[C@H]2CN(C(=O)NO)C3)c2ccc(-c3cc(O)cc4ccccc34)cc2n1 )
10 to 100 µM

Same read-out for CCc1cccc2c1N(c1ccc3c(N4C[C@H]5CC[C@@H](C4)N5)nc(OCC45CCCN4CCC5)nc3c1F)CCC2 ?
0.0001 to 10 µM

Same read-out for CN(C)Cc1nc(N2C[C@H]3CC[C@@H](C2)N3)c2cc(Cl)c(-c3c(O)cccc3F)c(F)c2n1 ?
10 to 100 µM

* * *

biological target: G12V-mutant human KRAS (amino acid residues 1-188) (Homo sapiens, UniProt P01116, G12V); construct: G12V-mutant human KRAS (amino acid residues 1-188) with FLAG tag was purified from E. coli; made in house; host or cells: E. coli; assay: KRAS Binding Competition Assay (AlphaScreen; biotinylated KRpep-2d analogue), G12V; details: geometric mean, read-out: KRAS GMean IC50 (uM) MUTATION: G12V
readout: IC50

# count of solved cases: 10
molecule: CN1CCC[C@H]1COc1nc(N2[C@@H]3CC[C@H]2CNC3)c2ccc(-c3cc([N+](=O)[O-])cc4ccccc34)cc2n1
observed-measurement: 10 to 100 µM
--
molecule: OCCc1nc(N2C[C@H]3CC[C@@H](C2)N3)c2ccc(-c3cc(O)cc4ccccc34)c(F)c2n1
observed-measurement: 10 to 100 µM
--
molecule: CN1CC[C@H](NC(=O)N2[C@@H]3CC[C@H]2CN(c2nc(OCC45CCCN4CCC5)nc4cc(-c5cc(O)cc6ccccc56)ccc24)C3)C1
observed-measurement: 0.0001 to 10 µM
--
molecule: CN1CCC[C@H]1COc1nc(N2C[C@H]3CC[C@@H](C2)N3)c2ccc(-c3ccc(Cl)c(N)c3)cc2n1
observed-measurement: 10 to 100 µM
--
molecule: O=C(NC1CCOC1)N1[C@@H]2CC[C@H]1CN(c1nc(OCC34CCCN3CCC4)nc3cc(-c4cc(O)cc5ccccc45)ccc13)C2 (some centres unmarked)
observed-measurement: 0.0001 to 10 µM
--
molecule: CNC(=O)CN1[C@@H]2CC[C@H]1CN(c1nc(OCC34CCCN3CCC4)nc3c(F)c(-c4cc(O)cc5ccccc45)ccc13)C2
observed-measurement: 0.0001 to 10 µM
--
molecule: CN1CCC[C@H]1COc1nc(N2CC3CCC(C2)N3)c2ccc(-c3cc(Cl)cn4ccnc34)cc2n1
observed-measurement: 10 to 100 µM
--
molecule: O=C(CCCn1ccnc1)N1[C@@H]2CC[C@H]1CN(c1nc(OCC34CCCN3CCC4)nc3c(F)c(-c4cc(O)cc5ccccc45)ccc13)C2
observed-measurement: 0.0001 to 10 µM
--
molecule: CN1CCC[C@H]1COc1nc(N2CC3CCC(C2)N3C(=O)CCCN2CCOCC2)c2ccc(-c3cc(O)cc4ccccc34)c(F)c2n1 (racemic)
observed-measurement: 10 to 100 µM
--
molecule: CN1CCC[C@H]1COc1nc(N2C[C@H]3CC[C@@H](C2)N3CC(=O)C2CCOC2)c2ccc(-c3cc(O)cc4ccccc34)c(F)c2n1 (some centres unmarked)
observed-measurement: 10 to 100 µM

# evaluate next
# get_value(readout='IC50', item= CN1CCC[C@H]1COc1nc(N2[C@@H]3CC[C@H]2CN(CC2(O)CCNCC2)C3)c2ccc(-c3cc(O)cc4ccccc34)cc2n1 )
10 to 100 µM

* * *

target: G12D-mutant human KRAS (amino acid residues 1-188) (Homo sapiens, UniProt P01116, G12D); construct: G12D or G12C-mutant human KRAS (amino acid residues 1-188) with FLAG tag; made in house; host or cells: E. coli; assay: KRAS Binding Disruption Assay (AlphaScreen; biotinylated KRpep-2d analogue or RAF1-RBD), G12D; details: KRAS G12D; geometric mean; read-out: KRAS GMean IC50 (uM) MUTATION: G12D
# Lookup of reported IC50 keyed by entry

compound: CN1CCC[C@H]1COc1nc(N2[C@@H]3CC[C@H]2CN(C(=O)c2cc[nH]n2)C3)c2ccc(-c3cc(O)cc4ccccc34)cc2n1
tested-on: G12D-mutant human KRAS (amino acid residues 1-188) (Homo sapiens, UniProt P01116, G12D)
IC50: 10 to 100 µM

# evaluate next
# get_value(readout='IC50', item= CN1CC[C@@H](NC(=O)N2[C@@H]3CC[C@H]2CN(c2nc(OCC45CCCN4CCC5)nc4cc(-c5cc(O)cc6ccccc56)ccc24)C3)C1 )
0.0001 to 10 µM

* * *

target: G12V-mutant human KRAS (amino acid residues 1-188) (Homo sapiens, UniProt P01116, G12V); construct: G12V-mutant human KRAS (amino acid residues 1-188) with FLAG tag was purified from E. coli; made in house; host or cells: E. coli; assay: KRAS Binding Competition Assay (AlphaScreen; biotinylated KRpep-2d analogue), G12V; conditions: geometric mean, read-out: KRAS GMean IC50 (uM) MUTATION: G12V
# Lookup of reported IC50 keyed by entry

# count of solved cases: 8
compound: COc1ccc2c(-c3c(F)cc4c(N5C[C@H]6CC[C@@H](C5)N6)nc(OC[C@@H]5CCCN5C)nc4c3F)c[nH]c2c1
IC50: 100 to 1000 µM
//
compound: CN1CCC[C@H]1COc1nc(N2[C@@H]3CC[C@H]2CN(C(=O)NCC(N)=O)C3)c2ccc(-c3cc(O)cc4ccccc34)cc2n1
IC50: 10 to 100 µM
//
compound: CN1CCC[C@H]1COc1nc(N2C[C@H]3CC[C@@H](C2)N3)c2ccc(-c3cc(O)cc4ccccc34)c(F)c2n1
IC50: 0.0001 to 10 µM
//
compound: COc1cccc(F)c1-c1c(Cl)cc2c(N3C[C@H]4CC[C@@H](C3)N4)nc(OC3CCN(C)CC3)nc2c1F
IC50: 10 to 100 µM
//
compound: CN1CC[C@@H](NS(=O)(=O)N2[C@@H]3CC[C@H]2CN(c2nc(OC[C@@H]4CCCN4C)nc4c(F)c(-c5cc(O)cc6ccccc56)ccc24)C3)C1
IC50: 0.0001 to 10 µM
//
compound: CN1CCC(Oc2nc(N3C[C@H]4CC[C@@H](C3)N4)c3cc(Cl)c(-c4c(O)cccc4F)c(F)c3n2)CC1
IC50: 10 to 100 µM
//
compound: NS(=O)(=O)CC(=O)N1[C@@H]2CC[C@H]1CN(c1nc(OCC34CCCN3CCC4)nc3c(F)c(-c4cc(O)cc5ccccc45)ccc13)C2
IC50: 0.0001 to 10 µM
//
compound: Oc1cc(-c2ccc3c(N4[C@@H]5CC[C@H]4CNC5)nc(Oc4cccnc4)nc3c2)c2ccccc2c1
IC50: 10 to 100 µM

# evaluate next
# get_value(readout='IC50', item= CN1CCC[C@H]1COc1nc(N2[C@@H]3CC[C@H]2CNC3)c2ccc(-c3cc(N)cc4ccccc34)cc2n1 )
0.0001 to 10 µM

* * *

# Lookup of reported IC50 keyed by entry
target: G12C-mutant human KRAS (amino acid residues 1-188) (Homo sapiens, UniProt P01116, G12C); construct: G12D or G12C-mutant human KRAS (amino acid residues 1-188) with FLAG tag; made in house; host or cells: E. coli; assay: KRAS Binding Disruption Assay (AlphaScreen; biotinylated KRpep-2d analogue or RAF1-RBD), G12C; details: geometric mean, read-out: KRAS GMean IC50 (uM) MUTATION: G12C

# count of solved cases: 3
compound: CN1CCC[C@H]1COc1nc(N2C[C@H]3CC[C@@H](C2)N3C(=O)CN2CCCC2)c2ccc(-c3cc(O)cc4ccccc34)cc2n1
tested-on: G12C-mutant human KRAS (amino acid residues 1-188) (Homo sapiens, UniProt P01116, G12C)
IC50: 0.0001 to 10 µM
--
compound: CN1CC[C@@H](NC(=O)N2[C@@H]3CC[C@H]2CN(c2nc(OCC45CCCN4CCC5)nc4c(F)c(-c5cc(O)cc6ccccc56)ccc24)C3)C1
tested-on: G12C-mutant human KRAS (amino acid residues 1-188) (Homo sapiens, UniProt P01116, G12C)
IC50: 0.0001 to 10 µM
--
compound: Fc1cc2c(N3C[C@H]4CC[C@@H](C3)N4)nc(OCC34CCCN3CCC4)nc2c(F)c1-c1c(Cl)cnc2[nH]ccc12
tested-on: G12C-mutant human KRAS (amino acid residues 1-188) (Homo sapiens, UniProt P01116, G12C)
IC50: 10 to 100 µM

# get_value(readout='IC50', item= Oc1cc(-c2ccc3c(N4C[C@H]5CC[C@@H](C4)N5)nc(OCC4CC(F)(F)C4)nc3c2F)c2ccccc2c1 )
10 to 100 µM

Same read-out for OCC1(COc2nc(N3C[C@H]4CC[C@@H](C3)N4)c3ccc(-c4cc(O)cc5ccccc45)c(F)c3n2)CCC1 ?
0.0001 to 10 µM

Same read-out for CC(=O)NC(C)(C)COc1nc(N2C[C@H]3CC[C@@H](C2)N3)c2ccc(-c3cc(O)cc4ccccc34)c(F)c2n1 ?
10 to 100 µM

Same read-out for O=C1NC(=O)C(CCC(=O)N2[C@@H]3CC[C@H]2CN(c2nc(OCC45CCCN4CCC5)nc4c(F)c(-c5cc(O)cc6ccccc56)ccc24)C3)N1 (some centres unmarked) ?
0.0001 to 10 µM

Same read-out for CC(=O)NCCOc1nc(N2C[C@H]3CC[C@@H](C2)N3)c2ccc(-c3cc(O)cc4ccccc34)c(F)c2n1 ?
10 to 100 µM

Same read-out for NCC(O)CC(=O)N1[C@@H]2CC[C@H]1CN(c1nc(OCC34CCCN3CCC4)nc3cc(-c4cc(O)cc5ccccc45)ccc13)C2 (some centres unmarked) ?
0.0001 to 10 µM

Same read-out for N#Cc1cccc2[nH]cc(-c3ccc4c(N5C[C@H]6CC[C@@H](C5)N6)nc(OCC56CCCN5CCC6)nc4c3F)c12 ?
0.0001 to 10 µM

Same read-out for CN1CCC[C@H]1COc1nc(N2C[C@H]3CC[C@@H](C2)N3)c2cc(F)c(-c3n[nH]c4ccc(F)cc34)c(F)c2n1 ?
100 to 1000 µM

Same read-out for CN1CCC[C@H]1COc1nc(N2C[C@H]3CC[C@@H](C2)N3)c2cc(F)c(-c3c[nH]c4ccc(F)cc34)c(F)c2n1 ?
10 to 100 µM

Same read-out for O=C(O)CCOc1nc(N2C[C@H]3CC[C@@H](C2)N3)c2ccc(-c3cc(O)cc4ccccc34)c(F)c2n1 ?
10 to 100 µM

Same read-out for Cc1c(-c2cc(O)cc3ccccc23)ccc2c(N3C[C@H]4CC[C@@H](C3)N4)nc(OCC34CCCN3CCC4)nc12 ?
0.0001 to 10 µM
